assay: Biodistribution of radiotracers in normal mice; type: in vivo, mouse; details: normal male mice, 60 min
The label is 1 for Biodistribution: Bone below 0.4 % dose/g and 0 for Biodistribution: Bone equal to or exceeding 0.4 % dose/g.

compound | cat
O=C(O)CCc1ccc2c(n1)C[N+]13CC[N+]45CC(=O)[O][68Ga-3]14([O]C(=O)C3)([O]2)[O]c1ccc(CCC(=O)NCCCCCC(=O)NCCCC[C@H](NC(=O)N[C@@H](CCC(=O)O)C(=O)O)C(=O)O)nc1C5 (stereo partly drawn) [[^68Ga]2] | 0
O=C(O)CCc1ccc2c(c1)C[N+]13CC[N+]45CC(=O)[O][68Ga-3]14([O]C(=O)C3)([O]2)[O]c1ccc(CCC(=O)NCC(=O)N[C@@H](Cc2ccc(OCC(=O)N[C@@H](Cc3ccccc3)C(=O)NCCCC[C@H](NC(=O)N[C@@H](CCC(=O)O)C(=O)O)C(=O)O)cc2)C(=O)O)cc1C5 (stereo partly drawn) [[^68Ga]5b] | 1
O=C(O)CC[C@H](NC(=O)N[C@@H](CCCCNC(=O)CCCCCNC(=O)CCc1ccc2c(c1)C[N+]13CC[N+]45CC(=O)[O][68Ga-3]14([O]C(=O)C3)([O]2)[O]c1ccc(CCC(=O)N[C@@H](CC(=O)O)C(=O)O)cc1C5)C(=O)O)C(=O)O (stereo partly drawn) [[^68Ga]1e] | 0
O=C(O)CCc1ccc2c(c1)C[N+]13CC[N+]45CC(=O)[O][68Ga-3]14([O]C(=O)C3)([O]2)[O]c1ccc(CCC(=O)NCCCCCC(=O)NCCCC[C@H](NC(=O)N[C@@H](CCC(=O)O)C(=O)O)C(=O)O)cc1C5 (stereo partly drawn) [[^68Ga]1a, reference compound] | 1
C[C@H](NC(=O)CCc1ccc2c(c1)C[N+]13CC[N+]45CC(=O)[O][68Ga-3]41([O]C(=O)C3)([O]c1ccc(CCC(=O)NCCCCCC(=O)NCCCC[C@H](NC(=O)N[C@@H](CCC(=O)O)C(=O)O)C(=O)O)cc1C5)[O]2)C(=O)O (stereo partly drawn) [[^68Ga]1d] | 0
O=C(O)CC[C@H](NC(=O)N[C@@H](CCCCNC(=O)CCCCCNC(=O)CCc1ccc2c(n1)C[N+]13CC[N+]45CC(=O)[O][68Ga-3]14([O]C(=O)C3)([O]2)[O]c1ccc(CCC(=O)NCCCCCC(=O)NCCCC[C@H](NC(=O)N[C@@H](CCC(=O)O)C(=O)O)C(=O)O)nc1C5)C(=O)O)C(=O)O (stereo partly drawn) [[^68Ga]3] | 0
O=C(O)CC[C@H](NC(=O)N[C@@H](CCCCNC(=O)CCCCCNC(=O)CCc1ccc2c(c1)C[N+]13CC[N+]45CC(=O)[O][68Ga-3]14([O]C(=O)C3)([O]2)[O]c1ccc(CCC(=O)NCC(=O)O)cc1C5)C(=O)O)C(=O)O (stereo partly drawn) [[^68Ga]1c] | 0
O=C(O)CC[C@H](NC(=O)N[C@@H](CCCCNC(=O)CCCCCNC(=O)CCc1ccc2c(c1)C[N+]13CC[N+]45CC(=O)[O][68Ga-3]14([O]C(=O)C3)([O]2)[O]c1ccc(CCC(=O)NCCNC(=O)CN2CCN(CC(=O)O)CCN(CC(=O)O)CCN(CC(=O)O)CC2)cc1C5)C(=O)O)C(=O)O (stereo partly drawn) [[^68Ga]1g] | 1
O=C(O)CC[C@H](NC(=O)CCc1ccc2c(c1)C[N+]13CC[N+]45CC(=O)[O][68Ga-3]41([O]C(=O)C3)([O]c1ccc(CCC(=O)NCCCCCC(=O)NCCCC[C@H](NC(=O)N[C@@H](CCC(=O)O)C(=O)O)C(=O)O)cc1C5)[O]2)C(=O)O (stereo partly drawn) [[^68Ga]1f] | 0
